Where these numbers come from: patent US20240132580A1

Provide the reported pIC50 of each item.
Molecular target: T1, Human VEGF-121 (Acro Biosystems) (human, UniProt P15692 207-395)
T1 construct: Bought protein; also called human VEGFA
T1 sequence: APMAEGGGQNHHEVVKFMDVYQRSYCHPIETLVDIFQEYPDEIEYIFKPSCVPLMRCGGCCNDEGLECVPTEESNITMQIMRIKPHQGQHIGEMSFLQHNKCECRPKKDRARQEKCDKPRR
Test: competitive ELISA, inhibition of VEGF-121 (0.5 nM) binding to coated VEGFR1 (FIG. 5)
pIC50 here is simply -log10 of the concentration when that concentration is written in mol/L.

Entry 23D5.1 (VHH, Autonomous humanised VH domain (DotBody), from the 16C2.1-based library without heat challenge; E. coli, ATG codon 5' (possible initiator Met), 3' hexahistidine tag; also called DotBody 23D5.1) VHH: EVQLVESGGGLVQPGGSLRLSCAISGFDLATTDIDWVRQAPGKGLEWVARIFRPSDFTDYADSVKGRFTISADTSKNTVYLQMNSLRAEDTAVYYCVRPDSYAYNILFVTRTFNALHYRGQGTLVTVSS : reported pIC50 = ?
8.85

Input 20A2.1 (VHH, Autonomous humanised VH domain (DotBody), from the 16A2.1-based library with heat challenge; E. coli, ATG codon 5' (possible initiator Met), 3' hexahistidine tag; also called DotBody 20A2.1) VHH: EVQLVESGGGLVQPGGSLRLSCAISGFPLADTDIDWVRQAPGKGLEWVARIFSSYGSTDYADSVKGRFTISADTSKNTVYLQMNSLRAEDTAVYYCGRSDSIAYNIILPASTYSSRDYRGQGTLVTVSS
8.80

Input 21E6.1 (VHH, Autonomous humanised VH domain (DotBody), from the 16C2.1-based library with heat challenge; E. coli, ATG codon 5' (possible initiator Met), 3' hexahistidine tag; also called DotBody 21E6.1) VHH: EVQLVESGGGLVQPGGSLRLSCAISGFTLAATDIDWVRQAPGKGLEWVARIFTPTGFSDYADSVKGRFTISADTSKNTVYLQMNSLRAEDTAVYYCGIPELYAYNIFMDIPAYNDVYYRGQGTLVTVSS
8.12

Input 21D9.1 (VHH, Autonomous humanised VH domain (DotBody), from the 16C2.1-based library with heat challenge; E. coli, ATG codon 5' (possible initiator Met), 3' hexahistidine tag; also called DotBody 21D9.1) VHH: EVQLVESGGGLVQPGGSLRLSCAISGFSLGATDIDWVRQAPGKGLEWVARIFSPSDFTDYADSVKGRFTISADTSKNTVYLQMNSLRAEDTAVYYCSRPDTYAYNIFPHTASHGAFNYRGQGTLVTVSS
9.00

Input 20A3.1 (VHH, Autonomous humanised VH domain (DotBody), from the 16A2.1-based library with heat challenge; E. coli, ATG codon 5' (possible initiator Met), 3' hexahistidine tag; also called DotBody 20A3.1) VHH: EVQLVESGGGLVQPGGSLRLSCAISGFSLADTDIDWVRQAPGKGLEWVARIFSSSGSTYYADSVKGRFTISADTSKNTVYLQMNSLRAEDTAVYYCDRADSVGYNVIFPGSTYSRSGYRGQGTLVTVSS
9.05

Input 21A1.1 (VHH, Autonomous humanised VH domain (DotBody), from the 16C2.1-based library with heat challenge; E. coli, ATG codon 5' (possible initiator Met), 3' hexahistidine tag; also called DotBody 21A1.1) VHH: EVQLVESGGGLVQPGGSLRLSCAISGFALATTDIDWVRQAPGKGLEWVARIFNPSDFTDYADSVKGRFTISADTSKNTVYLQMNSLRAEDTAVYYCGRPAVYGYNIFLDSPTYDASQYRGQGTLVTVSS
9.05

Input 16A2.1 (VHH, E. coli, ATG codon 5' (possible initiator Met), 3' hexahistidine tag; also called anti-VEGF DotBody 16A2.1; clone 16A2.1) VHH: EVQLVESGGGLVQPGGSLRLSCAISGFALAETDIDWVRQAPGKGLEWVARIFSSGGNTDYADSVKGRFTISADTSKNTVYLQMNSLRAEDTAVYYCGRSDSIAYNVILPNSTYTARDYRGQGTLVTVSS
8.52

Input 21A8.1 (VHH, Autonomous humanised VH domain (DotBody), from the 16C2.1-based library with heat challenge; E. coli, ATG codon 5' (possible initiator Met), 3' hexahistidine tag; also called DotBody 21A8.1) VHH: EVQLVESGGGLVQPGGSLRLSCAISGFSVDATDIDWVRQAPGKGLEWVARIFSPSGFTDYADSVKGRFTISADTSKNTVYLQMNSLRAEDTAVYYCDRPEFYAYNIFHDPRTVPAGNYRGQGTLVTVSS
8.74
